B1: Lysine-specific demethylase 2B, residues 656 to 722; numbered along this chain, Q8NHM5 (parent)
chain: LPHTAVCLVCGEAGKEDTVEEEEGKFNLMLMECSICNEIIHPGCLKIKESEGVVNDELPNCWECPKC

# Variants of: B1
# assay-text: abundance fitness (aPCA) (normalised: wild type 0, dead -1); higher = more abundant; growth selection in yeast, the domain comes from the species named
# test-context: Homo sapiens

- mutation-annotation: "P2W"
  abundance fitness: 0.667
- mutation-annotation: "M29Q"
  abundance fitness: -0.15
- mutation-annotation: "E23R"
  abundance fitness: -0.058
- mutation-annotation: "I39N"
  abundance fitness: 0.056
- mutation-annotation: "H41S"
  abundance fitness: -1.03
- mutation-annotation: "C64R"
  abundance fitness: -0.888
- mutation-annotation: "I47H"
  abundance fitness: -0.242
- mutation-annotation: "K66D"
  abundance fitness: -0.064
- mutation-annotation: "F26L"
  abundance fitness: -0.297
- mutation-annotation: "S34C"
  abundance fitness: -0.053
- mutation-annotation: "C64T"
  abundance fitness: -0.952
- mutation-annotation: "N27M"
  abundance fitness: 0.077
- mutation-annotation: "K15W"
  abundance fitness: 0.017
- mutation-annotation: "K15Q"
  abundance fitness: -0.378
- mutation-annotation: "C64W"
  abundance fitness: -0.775
- mutation-annotation: "E49Q"
  abundance fitness: -0.079
- mutation-annotation: "D17Q"
  abundance fitness: -0.091
- mutation-annotation: "E51Q"
  abundance fitness: -0.239
- mutation-annotation: "E57R"
  abundance fitness: -0.055
- mutation-annotation: "A5N"
  abundance fitness: -0.051
- mutation-annotation: "E49L"
  abundance fitness: -0.077
- mutation-annotation: "W62I"
  abundance fitness: -1
- mutation-annotation: "E32A"
  abundance fitness: -0.222
- mutation-annotation: "G52C"
  abundance fitness: -0.051
- mutation-annotation: "I47A"
  abundance fitness: -0.014
- mutation-annotation: "G52I"
  abundance fitness: -0.525
- mutation-annotation: "A13F"
  abundance fitness: 0.001
- mutation-annotation: "V6S"
  abundance fitness: -0.094
- mutation-annotation: "G11Q"
  abundance fitness: 0.129
- mutation-annotation: "I40S"
  abundance fitness: 0.096
- mutation-annotation: "N27S"
  abundance fitness: -0.085
- mutation-annotation: "E63S"
  abundance fitness: -0.223
- mutation-annotation: "M31I"
  abundance fitness: -0.238
- mutation-annotation: "N37H"
  abundance fitness: 0.081
- mutation-annotation: "N27C"
  abundance fitness: -0.706
- mutation-annotation: "K46D"
  abundance fitness: 0.224
- mutation-annotation: "V6Q"
  abundance fitness: -0.541
- mutation-annotation: "K25F"
  abundance fitness: -0.602
- mutation-annotation: "C44Q"
  abundance fitness: -0.79
- mutation-annotation: "V19L"
  abundance fitness: 0.017
- mutation-annotation: "P59N"
  abundance fitness: 0.214
- mutation-annotation: "C61E"
  abundance fitness: -0.105
- mutation-annotation: "C64S"
  abundance fitness: -0.797
- mutation-annotation: "D17A"
  abundance fitness: -0.173
- mutation-annotation: "E57H"
  abundance fitness: 0.001
- mutation-annotation: "K46L"
  abundance fitness: 0.007
